src = the supplement of paper PMC9112550

The sequences listed here are annotated with their shrunken log2 fold change.
Test system: Escherichia coli TOP10;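 also: peptides expressed intracellularly from a pBAD plasmid library in pooled LB shake-flask culture, induced with 0.3% L-arabinose, DNA abundance read by NGS, three biological replicates, DESeq2 with apeglm shrinkage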
assay-method-text: shrunken log2 fold change of peptide-encoding DNA abundance (4.5 h post-induction vs induction); higher = less antimicrobial activity (less host growth inhibition)
test-conditions: time post-induction: 4.5 h; library: site-saturation at positions 5, 18, 19, 20
measurement-type: shrunken log2 fold change

RRIRMRPPRLPRPRPRPWVVPRP 0.346
RRIRDRPPRLPRPRPRPENNPRP 0.264
RRIRSRPPRLPRPRPRPNNHPRP -0.276
RRIRGRPPRLPRPRPRPQRRPRP 0.565
RRIRGRPPRLPRPRPRPDMDPRP 0.00342
RRIRHRPPRLPRPRPRPPGIPRP 0.142
RRIRLRPPRLPRPRPRPVQVPRP -0.113
RRIRYRPPRLPRPRPRPQYHPRP -0.873
RRIRDRPPRLPRPRPRPASNPRP -0.15
RRIRLRPPRLPRPRPRPWRCPRP 0.336
RRIRQRPPRLPRPRPRPMPRPRP 0.0657
RRIRDRPPRLPRPRPRPRQNPRP 0.00972
RRIRRRPPRLPRPRPRPIQSPRP 0.0301
RRIRLRPPRLPRPRPRPKDLPRP -0.242
RRIRARPPRLPRPRPRPPQRPRP 1.16
RRIRMRPPRLPRPRPRPDQFPRP -0.00541
RRIRERPPRLPRPRPRPACWPRP 0.715
RRIRRRPPRLPRPRPRPLLPPRP 0.574
RRIRKRPPRLPRPRPRPYWMPRP -0.19
RRIRGRPPRLPRPRPRPMNQPRP 0.0945
RRIRMRPPRLPRPRPRPEASPRP 3.48
RRIRWRPPRLPRPRPRPPVFPRP 0.384
RRIRDRPPRLPRPRPRPFDQPRP -0.115
RRIRHRPPRLPRPRPRPWIRPRP -0.0813
